system_tested: CCR4 (Homo sapiens, UniProt P51679)
Construct: expressed in transfected cells; host or cells: L1.2 cells transfected with pcDI-CCR4
test: CCR4-MDC chemotaxis inhibition assay (48-well Boyden chamber, L1.2 cells transfected with pcDI-CCR4)
Assay type: cell-based
conditions: CCR4-MDC chemotaxis inhibition assay; compound 1 as positive control
experimental_endpoint: Chemotaxis inhibition activity against CCR4 (in words, compared with compound 1)

compound: Cc1cc(NCc2ccc(Cl)cc2Cl)nc(N2CCN(C(=O)[C@H]3CCCO3)CC2)n1 [Compound 12d]
reported_measurement: relatively weak activity
//
compound: Cc1cc(NCc2ccc(Cl)cc2Cl)nc(N2CCN(C(=O)C3CCN(C)CC3)CC2)n1 [Compound 12c]
reported_measurement: relatively weak activity

====

system_tested: UniProtKB P51679
Sequence (P51679 1-360): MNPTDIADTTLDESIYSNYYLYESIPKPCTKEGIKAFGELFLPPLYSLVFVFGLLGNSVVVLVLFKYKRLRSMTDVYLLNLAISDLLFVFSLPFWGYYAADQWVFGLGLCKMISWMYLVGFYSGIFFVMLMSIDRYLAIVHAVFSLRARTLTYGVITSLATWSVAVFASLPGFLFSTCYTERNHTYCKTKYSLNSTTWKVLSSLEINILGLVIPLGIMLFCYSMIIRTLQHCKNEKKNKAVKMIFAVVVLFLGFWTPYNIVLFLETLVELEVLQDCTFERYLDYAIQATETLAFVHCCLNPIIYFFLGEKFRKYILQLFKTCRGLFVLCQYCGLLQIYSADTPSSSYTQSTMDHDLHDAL
test: CCR4-MDC chemotaxis inhibition assay (48-well Boyden chamber, L1.2 cells transfected with pcDI-CCR4)
conditions: MDC 10 ng/mL, L1.2 cells transfected with pcDI-CCR4, compound preincubation 30 min at 37 °C, chamber 6 h; assayed three times; NA = no significant inhibition
experimental_endpoint: IC50 (nM)
Give the quantity in nM, number only.

Data request: If you can, please state the reported IC50 value of Cc1cc(NCc2ccc(Cl)cc2Cl)nc(N2CCN(C(=O)[C@H]3CCCCN3)CC2)n1 [Compound 12a] .
Data returned: 77

Data request: Consider next the molecule O=C([C@H]1CCCCN1)N1CCN(c2nc(Cl)cc(NCc3ccc(F)cc3F)n2)CC1 in the same way.
Data returned: 94

Data request: Consider next the molecule Cc1cc(NCc2ccc(Cl)cc2Cl)nc(N2CCN(C(=O)CN(C)C)CC2)n1 [Compound 12b] in the same way.
Data returned: 69

Data request: Consider next the molecule Cc1cc(NCc2ccc(Cl)cc2Cl)nc(N2CCN(C(=O)C3CCN(C)CC3)CC2)n1 [Compound 12c] in the same way.
Data returned: 178

Data request: Consider next the molecule O=C([C@H]1CCCCN1)N1CCN(c2nc(NCc3ccc(Cl)cc3Cl)cc(N3CCOCC3)n2)CC1 in the same way.
Data returned: 395

Data request: Consider next the molecule Cc1cc(NCc2ccc(Cl)cc2Cl)nc(N2CCN(C(=O)[C@H]3CCCO3)CC2)n1 [Compound 12d] in the same way.
Data returned: 235

Data request: Consider next the molecule O=C([C@H]1CCCCN1)N1CCN(c2nc(Cl)cc(NCc3ccc(Cl)cc3)n2)CC1 in the same way.
Data returned: 458

Data request: Consider next the molecule O=C([C@H]1CCCCN1)N1CCN(c2nc(NCc3ccc(Cl)cc3Cl)cc(N3CCCCC3)n2)CC1 in the same way.
Data returned: 133

Data request: Consider next the molecule O=C([C@H]1CCCCN1)N1CCN(c2nc(Cl)cc(NCc3ccc(Cl)cc3Cl)n2)CC1 in the same way.
Data returned: 78

Data request: Consider next the molecule CN(C)CC(=O)N1CCN(c2nc(Cl)cc(NCc3ccc(Cl)cc3Cl)n2)CC1 in the same way.
Data returned: 64
